Parameter 'readout' = 3′-exonucleolytic cleavage in tissue culture; parameter 'system' = B95-8 cells.
measure: 3′-exonucleolytic cleavage in tissue culture

TGACTTAGCTGCAT [14-Me^5a-3] (chemistry not given here) : single stepwise cleavage
TGACTTAGCTGCAT [14-Me^6a-3] (chemistry not given here) : single stepwise cleavage
TGACTTAGCTGCAT [14-Me^5b-3] (chemistry not given here) : absence of cleavage
TGACTTAGCTGCAT [14-Me^6b-3] (chemistry not given here) : absence of cleavage

====

- Tested on: B95-8 cells
measure: Tissue Culture Stabilities, Relative Half-Life, +FCS. B95-8
The answer should be written as a number, with no unit following it.

The cases that follow already have their Tissue Culture Stabilities, Relative Half-Life, +FCS. B95-8 on record.
TGACTTAGCTGCAT [14-Me^6a-3] (chemistry not given here) : 30
TGACTTAGCTGCAT [14-Me^5a-3] (chemistry not given here) : 30

Let us examine a further case.
So for TGACTTAGCTGCAT (chemistry not given here) [Oligomer 14-P-3] , the logged Tissue Culture Stabilities, Relative Half-Life, +FCS. B95-8 turned out to be 1
